Listed below: Trimeric HA Binding: RLU values for each entry.
Molecular target: recombinant homotrimeric HA A/Japan/305/57 H2N2 (Influenza A virus A/Japan/305/1957(H2N2))
Experiment: protein microarray, purified IgG, trimeric HA
Settings: remark: other sources report otherwise
REPORTED_ENDPOINT: Trimeric HA Binding: RLU (RLU)

BINDER	REPORTED_ENDPOINT	MEAS_VALUE
TCN-534 (5249_B02) (antibody, V domains shown) VH: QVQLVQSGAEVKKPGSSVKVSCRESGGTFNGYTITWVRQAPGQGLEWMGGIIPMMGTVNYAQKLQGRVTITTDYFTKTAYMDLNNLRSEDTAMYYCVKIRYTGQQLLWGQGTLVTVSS VL: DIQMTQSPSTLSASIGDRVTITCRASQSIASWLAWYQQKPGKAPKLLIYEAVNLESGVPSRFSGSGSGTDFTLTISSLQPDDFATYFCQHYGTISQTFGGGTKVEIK	Trimeric HA Binding: RLU	29100
TCN-535 (5246_P19) (antibody, V domains shown) VH: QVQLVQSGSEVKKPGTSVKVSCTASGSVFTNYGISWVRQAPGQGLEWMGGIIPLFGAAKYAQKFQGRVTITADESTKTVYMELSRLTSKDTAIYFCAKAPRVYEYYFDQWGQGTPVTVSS VL: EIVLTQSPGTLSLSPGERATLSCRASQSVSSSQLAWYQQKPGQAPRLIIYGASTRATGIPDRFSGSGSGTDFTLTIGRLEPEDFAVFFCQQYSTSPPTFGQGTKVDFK	Trimeric HA Binding: RLU	13000
TCN-551 (5243_D01) (antibody, V domains shown) VH: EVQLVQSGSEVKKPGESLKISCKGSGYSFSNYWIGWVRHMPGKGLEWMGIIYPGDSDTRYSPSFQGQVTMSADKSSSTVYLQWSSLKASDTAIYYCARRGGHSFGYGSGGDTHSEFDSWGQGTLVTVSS VL: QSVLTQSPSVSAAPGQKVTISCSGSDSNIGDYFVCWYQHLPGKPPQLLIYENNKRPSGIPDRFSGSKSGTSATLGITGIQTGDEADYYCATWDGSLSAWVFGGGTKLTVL	Trimeric HA Binding: RLU	1600
